# assay_name: NCI Yeast Anticancer Drug Screen. Data for the bub3 strain (AID 167)
# condition_label: S. cerevisiae bub3 mutant strain, at 50.0 µM, active compounds read high
The panel holds about 79,000 compounds, 15% with a hit somewhere; the sample as a whole holds those more often.
readout_name: growth inhibition (%)
Entry rule: numbers only, all in %.

# example entries with known answers
• COc1ccc2c(c1)c1c3c(ccc4ncn2c43)N(CCN(C)C)CCN=1 = 1.4
• O=C1OC(Nc2ccccc2)C(Cl)=C1Cl (stereo not drawn) = 6.2
• O=C(c1cccnc1)c1cc(-c2ccccn2)c(=O)n2ccccc12 = -15.8

Problem: Give growth inhibition for the following compound: CC1=CC(=O)[C@@H](O)[C@]2(C)[C@H]3[C@@]4(O)OC[C@]35[C@H]([C@@H](CO)[C@H]4O)[C@@H](OC3OC(CO)C(O)C(O)C3O)C(=O)O[C@@H]5C[C@@H]12 (stereo partly drawn)
Result: -25.1

Problem: Consider the compound CC(CS(C)(=O)=O)S(=O)(=O)Cc1ccccc1 (stereo not drawn) . State its measured growth inhibition.
Result: 6.25

Problem: Please report the measured growth inhibition for CN(Cc1ccccc1)C(=O)c1ccccc1C(=O)O
Result: -4.95

Problem: Supply growth inhibition value. Item: CCCCCCCCCCCCNC
Result: 62.6

Problem: Report measured growth inhibition; entry is CN1CCCC(C(O)c2ccccc2)S1(=O)=O (stereo not drawn)
Result: 29.4

* * *

# assay_name: NCI Yeast Anticancer Drug Screen. Data for the mec2-1 strain (AID 157)
# condition_label: S. cerevisiae mec2-1 strain, at 50.0 µM, active compounds read high
About 79,000 compounds went through this panel and 15% of them were active in at least one assay; those are over-represented in the sample as a whole.
List of growth inhibition values.
Entry rule: numbers only, all in %.

Some solved entries appear below for comparison.
• Cc1ccc(C(=O)C(O)c2ccc(C)cc2)cc1 (stereo not drawn) = -34.6
• Cc1ccc(N=Nc2c(O)c3ccccc3[nH]c2=O)c(S(=O)(=O)N(C)C)c1 = -24.2

Please turn your attention to the following entry.
Problem: Please report the measured growth inhibition for O=c1[nH]cnc2c(COCCO)c[nH]c12
Result: 2.8

* * *

# assay_name: NCI Yeast Anticancer Drug Screen. Data for the rad50 strain (AID 155);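 note: 0% = growth of vehicle-only cultures of the same strain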
# condition_label: S. cerevisiae rad50 strain growth inhibition; at 50.0 µM; active compounds read high
About 79,000 compounds went through this panel and 15% of them were active in at least one assay; those are over-represented in the sample as a whole.
Quick reference for growth inhibition among some compounds
Use % as the unit, but write only the number.

The cases that follow already have their growth inhibition on record.
• COC(=O)C(C(C)C(C)[N+](=O)[O-])=P(c1ccccc1)(c1ccccc1)c1ccccc1 (stereo unspecified) = 41.7
• CC1(C)C(=O)N(c2ccccc2)C1c1ccccc1 (stereo unspecified) = -6.2
• COc1ccc(CCNC(=O)c2cccc(Cl)c2)cc1OC = -7.05
• CC(=O)Nc1ccc(/C=N\N=C\c2ccc(NC(C)=O)cc2)cc1 = 1.95
• CCCC(CC)C(=O)NC(N)=O (stereo unspecified) = -7.2
• NC(=O)c1cccc(F)c1 = 13.8

Problem: Supply recorded growth inhibition for CC(=O)OCC1OC(OC(C)=O)C(Nc2ncnc3nc[nH]c23)C(OC(C)=O)C1OC(C)=O (stereo unspecified) here.
Result: 28.1

Problem: Note growth inhibition for the compound shown: CC#Cc1c(O)c2c(c(O)c1C#CC)C(=O)c1ccccc1C2=O
Result: -1.3

* * *

Quick reference for growth inhibition among some compounds
# assay_name: NCI Yeast Anticancer Drug Screen. Data for the bub3 strain (AID 167)
# condition_label: S. cerevisiae bub3 mutant strain, at 50.0 µM, active compounds read high
Compounds without any hit were thinned out: in the full panel of roughly 79,000, 15% have a hit.
Output spec: scalar in %, unitless text.

• COc1cc(CC2c3cc(OC)c(OC)cc3CCN2C)ccc1O (configuration not stated) = -15.6
• CC(C)(C#N)OC(=O)Nc1cccc(Cl)c1 = -30.6
• NC(=O)NC=O = -14.6
• CC[N+](C)(CC)C(Cc1ccccc1)c1ccccc1 (configuration not stated) = -5.8
• Cn1c(=O)c2c(ncn2CCNCC(O)c2cc(C(C)(C)C)c(O)c(C(C)(C)C)c2)n(C)c1=O (configuration not stated) = -3.2

Problem: Output measured growth inhibition for this item: COC(=O)C(Cl)=C1CC1
Result: 6.25

Problem: Please give the documented growth inhibition of CC1(C)OC(=O)C(C)(C)OC1=O
Result: 8.4

Problem: Name the recorded growth inhibition of the compound listed here: CCC(=O)[C@@]1(OC(C)=O)CC[C@H]2[C@@H]3CCC4=CC(=O)CC[C@]4(C)[C@H]3CC[C@@]21C
Result: 26.9

Problem: Report growth inhibition, nothing else, for this compound: CCC1(O)C(=O)Nc2ccccc2C1=O (configuration not stated)
Result: -23.1

Problem: Return growth inhibition for the following compound: CCOC(=O)CCc1ccco1
Result: 9.1

Problem: Look up growth inhibition of CN1CCC2c3c([nH]c4ccccc34)C(C)(C)OC2C1 (configuration not stated) and report it.
Result: -24.6

Problem: Look up growth inhibition of CC(=O)Nc1ccc(SC#N)c2c(NC(C)=O)cccc12 and report it.
Result: 30.4

* * *

Here the recorded growth inhibition is given for each entry.
# assay_name: NCI Yeast Anticancer Drug Screen. Data for the bub3 strain (AID 167)
# condition_label: S. cerevisiae bub3 mutant strain, at 50.0 µM, active compounds read high
About 79,000 compounds went through this panel and 15% of them were active in at least one assay; those are over-represented in the sample as a whole.
Kindly answer with a numeric value in %, unit omitted.

Worked examples follow.
- CCN1OCC(C)(C(=O)OC)C1C (configuration not stated): 9.9
- COc1ccc(N=Nc2ccccc2)cc1: -11.8
- NC(N)=NC(N)=Nc1cnccn1: -10.5
- O=C(NC1CCCCC1Cl)C1CCCCC1 (configuration not stated): -6.7
- COC(=O)CSSCc1ccccc1: -28.1
- NC(=O)c1cccc2c1OCO2: -0.6
- CCOC(=O)c1cnc2ccc(OC)cc2c1: 35.5
- CC(O)C(O)C(O)C(O)C=O (configuration not stated): 7

Problem: Given CCCC(N)S(=O)(=O)O (configuration not stated) , respond with its growth inhibition.
Result: 6.1

Problem: Please give measured growth inhibition of the following entry: CC1CC(C)OC(C)(Cc2ccccc2)O1 (configuration not stated)
Result: -2.15

Problem: Answer with reported growth inhibition of CC(C)(C)NN=C1C(C)(C)C(=NNC(C)(C)C)C1(C)C
Result: -23.1

Problem: Quote growth inhibition reported for C/C(CC(=O)Nc1ccc(C)c(C)c1)=N\NC(N)=S please.
Result: 0.05

Problem: Specify reported growth inhibition for the compound shown: O=C1OCC/C1=C\c1ccc(Br)cc1
Result: 7.5

Problem: Retrieve growth inhibition measured for O=C(Nc1ccccc1Cl)Oc1ccc(Cl)cc1Cl and print it.
Result: -6.05

Problem: Recall and state the measured growth inhibition for COC(C(=O)[O][Ge]([CH3])([CH3])[CH3])c1ccccc1 (configuration not stated) .
Result: -2.15

* * *

# assay_name: NCI Yeast Anticancer Drug Screen. Data for the mlh1 rad18 strain (AID 175)
# condition_label: S. cerevisiae mlh1 rad18 strain growth inhibition; at 50.0 µM; active compounds read high
Compounds without any hit were thinned out: in the full panel of roughly 79,000, 15% have a hit.
growth inhibition values by entry
Numeric answer only, unit % assumed.

- CCN(CC)c1ccc(NC(=O)CCl)cc1: 8.2
- NC(CC(=O)O)c1ccc(Cl)cc1 (stereo not drawn): 7
- O=C(O)C(=O)c1ccc(O)cc1O: 14.9
- NC(=O)/N=N/C(N)=O: 27.7

# evaluate next
Problem: Name the recorded growth inhibition of the item COc1ccc(Cl)cc1NC(=O)c1cccc([N+](=O)[O-])c1O in your answer.
Result: -78.4

* * *

Measured growth inhibition, listed per entry.
# assay_name: NCI Yeast Anticancer Drug Screen. Data for the mec2-1 strain (AID 157)
# condition_label: S. cerevisiae mec2-1 strain, at 50.0 µM, active compounds read high
The panel holds about 79,000 compounds, 15% with a hit somewhere; the sample as a whole holds those more often. Where a SMILES comes first, the peptide text is derived from it. [ ]: non-standard residue; d: D form. The star is where a group is joined. ξ: configuration not given here. Bz = O=C(c1ccccc1)*; Bn = c1ccc(C*)cc1; ξC = NC(CS)C(=O)O
Quick reminder: number only, in %, skip the unit.

• CN(Nc1ccnc(=O)[nH]1)c1ccccc1 = -11.2
• C/C=C/C[P+](Cc1ccccc1)(c1ccccc1)c1ccccc1 = 14.9
• CCOC(=O)C(C)C(=O)OCC = -17.9
• O=C(CNC(=O)c1ccccc1)NC(CSCc1ccccc1)C(=O)O (stereo unspecified) (Bz-Gly-[ξC](Bn)-OH) = 5.55
• NCCCn1[nH]c(=O)c2cccnc2c1=O = -19

Consider now this further compound.
Problem: Entry CCCCCCCCC(=O)c1c(OC)oc(C=O)cc1=O needs its growth inhibition filled in; supply it.
Result: -22.8
